- Test system: TK-10
- Procedure Details: Growth inhibition of human TK10 cells at 1 uM after 48 hrs by sulforhodamine B assay
- Type: functional, cell-based
The source made the active and inactive calls. The rule behind the calls is not given here.
Hi there, use one of these labels in your reply, thanks! active, inactive

Examples with answers:
>>> print(df.to_string())
                                   compound  class_assignment
0  Nc1nc(N)c2c(n1)NC(c1ccc(F)cc1)C1CCc3ccccc3C1=N2 (stereo unspecified)          inactive
1  Nc1ncnc2c1N=C1c3ccccc3CCC1C(c1ccc(F)cc1)N2 (stereo unspecified)            active
2  Nc1nc(N)c2c(n1)NC(c1ccc(Cl)cc1)C1CCc3ccccc3C1=N2 (stereo unspecified)          inactive
3  Nc1ncnc2c1N=C1c3ccccc3CCC1C(c1ccc(Cl)cc1)N2 (stereo unspecified)            active
4  Nc1nc(N)c2c(n1)NC(c1ccccc1)C1CCc3ccccc3C1=N2 (stereo unspecified)          inactive

Now for a further compound.
# lookup: test call for Nc1ncnc2c1N=C1c3ccccc3CCC1C(c1ccccc1)N2 (stereo unspecified)
active

---

- System: HCT-116
- Procedure Details: Growth inhibition of human HCT116 cells at 1 uM after 48 hrs by sulforhodamine B assay
- Assay type: functional, cell-based
Active and inactive are the calls of the source. The rule behind the calls is not given here.
API: response.call in Yes for active, No for inactive

In [3]: df
Out[3]:
                                   compound  class_assignment
0  Nc1ncnc2c1N=C1c3ccccc3CCC1C(c1ccc(F)cc1)N2 (stereo unspecified)               Yes
1  Nc1nc(N)c2c(n1)NC(c1ccc(F)cc1)C1CCc3ccccc3C1=N2 (stereo unspecified)                No
2  Nc1ncnc2c1N=C1c3ccccc3CCC1C(c1ccccc1)N2 (stereo unspecified)               Yes
3  Nc1ncnc2c1N=C1c3ccccc3CCC1C(c1ccc(Cl)cc1)N2 (stereo unspecified)               Yes

Test call for this compound, please: Nc1nc(N)c2c(n1)NC(c1ccccc1)C1CCc3ccccc3C1=N2 (stereo unspecified)
No

Identify the outcome logged in this assay for the compound shown: Nc1nc(N)c2c(n1)NC(c1ccc(Cl)cc1)C1CCc3ccccc3C1=N2 (stereo unspecified)
No

---

- Test system: EKVX
- Procedure Details: Growth inhibition of human EKVX cells at 1 uM after 48 hrs by sulforhodamine B assay
- Format: functional, cell-based
Active and inactive are the calls of the source. The rule behind the calls is not given here.
Valid outcomes are listed here; reply with one: True for active, False for inactive

>>> df
                                   molecule  target_or_system  class_assignment
0  Nc1nc(N)c2c(n1)NC(c1ccccc1)C1CCc3ccccc3C1=N2 (stereo unspecified)              EKVX             False

Identify the outcome logged in this assay for the molecule shown: Nc1nc(N)c2c(n1)NC(c1ccc(Cl)cc1)C1CCc3ccccc3C1=N2 (stereo unspecified)
False

Returns: the outcome recorded for Nc1ncnc2c1N=C1c3ccccc3CCC1C(c1ccccc1)N2 (stereo unspecified) in this assay.
True

Tell me the assay call for Nc1ncnc2c1N=C1c3ccccc3CCC1C(c1ccc(Cl)cc1)N2 (stereo unspecified) please.
True

Hey, what did the test say about Nc1nc(N)c2c(n1)NC(c1ccc(F)cc1)C1CCc3ccccc3C1=N2 (stereo unspecified) ?
False

Outcome logged for Nc1ncnc2c1N=C1c3ccccc3CCC1C(c1ccc(F)cc1)N2 (stereo unspecified) in this assay:
True

---

- System: HOP-92
- Procedure Details: Growth inhibition of human HOP92 cells at 1 uM after 48 hrs by sulforhodamine B assay
- Type: functional, cell-based
Activity calls are given as the source filed them. The rule behind the calls is not given here.
Return exactly one item of active, inactive

Sample answers from the record:
                                   molecule  class_assignment
0  Nc1ncnc2c1N=C1c3ccccc3CCC1C(c1ccccc1)N2 (stereo unspecified)            active
1  Nc1nc(N)c2c(n1)NC(c1ccc(Cl)cc1)C1CCc3ccccc3C1=N2 (stereo unspecified)          inactive
2  Nc1ncnc2c1N=C1c3ccccc3CCC1C(c1ccc(Cl)cc1)N2 (stereo unspecified)            active
3  Nc1ncnc2c1N=C1c3ccccc3CCC1C(c1ccc(F)cc1)N2 (stereo unspecified)            active
4  Nc1nc(N)c2c(n1)NC(c1ccc(F)cc1)C1CCc3ccccc3C1=N2 (stereo unspecified)          inactive

Dear colleague, could you share the recorded outcome for Nc1nc(N)c2c(n1)NC(c1ccccc1)C1CCc3ccccc3C1=N2 (stereo unspecified) when you have a moment?
inactive

---

- Test system: SK-MEL-28
- Procedure Details: Growth inhibition of human SK-MEL-28 cells at 1 uM after 48 hrs by sulforhodamine B assay
- Format: functional, cell-based
Calls of active or inactive are those of the source. The rule behind the calls is not given here.
The reply should be one of these categories: active, inactive

Some solved cases for reference:
>>> print(df.to_string())
                                   molecule  class_assignment
0  Nc1ncnc2c1N=C1c3ccccc3CCC1C(c1ccc(F)cc1)N2 (stereo unspecified)            active
1  Nc1nc(N)c2c(n1)NC(c1ccc(F)cc1)C1CCc3ccccc3C1=N2 (stereo unspecified)          inactive
2  Nc1ncnc2c1N=C1c3ccccc3CCC1C(c1ccc(Cl)cc1)N2 (stereo unspecified)            active

Recorded test outcome, item Nc1nc(N)c2c(n1)NC(c1ccccc1)C1CCc3ccccc3C1=N2 (stereo unspecified)
inactive

Could you please tell me the result logged for Nc1ncnc2c1N=C1c3ccccc3CCC1C(c1ccccc1)N2 (stereo unspecified) in this assay?
active

Kindly provide the recorded test outcome for the following molecule: Nc1nc(N)c2c(n1)NC(c1ccc(Cl)cc1)C1CCc3ccccc3C1=N2 (stereo unspecified)
inactive

---

- System: SR
- Procedure Details: Growth inhibition of human SR cells at 1 uM after 48 hrs by sulforhodamine B assay
- Format: functional, cell-based
Activity calls are given as the source filed them. The rule behind the calls is not given here.
Reply using exactly one outcome from TRUE for active, FALSE for inactive

Examples from the recorded data:
>>> print(df.to_string())
                                   molecule  target_or_system  class_assignment
0  Nc1nc(N)c2c(n1)NC(c1ccc(Cl)cc1)C1CCc3ccccc3C1=N2 (stereo unspecified)                SR             FALSE
1  Nc1ncnc2c1N=C1c3ccccc3CCC1C(c1ccc(Cl)cc1)N2 (stereo unspecified)                SR              TRUE
2  Nc1nc(N)c2c(n1)NC(c1ccc(F)cc1)C1CCc3ccccc3C1=N2 (stereo unspecified)                SR             FALSE
3  Nc1nc(N)c2c(n1)NC(c1ccccc1)C1CCc3ccccc3C1=N2 (stereo unspecified)                SR             FALSE
4  Nc1ncnc2c1N=C1c3ccccc3CCC1C(c1ccc(F)cc1)N2 (stereo unspecified)                SR              TRUE

Let us examine a further case.
Please indicate how the test categorized Nc1ncnc2c1N=C1c3ccccc3CCC1C(c1ccccc1)N2 (stereo unspecified) .
TRUE

---

- System: HCT-15
- Procedure Details: Growth inhibition of human HCT15 cells at 1 uM after 48 hrs by sulforhodamine B assay
- Assay type: functional, cell-based
Calls of active or inactive are those of the source. The rule behind the calls is not given here.
Log the outcome using a class from active, inactive

Which outcome was assigned to Nc1ncnc2c1N=C1c3ccccc3CCC1C(c1ccccc1)N2 (stereo unspecified) in this test?
active

What call does the record list for Nc1ncnc2c1N=C1c3ccccc3CCC1C(c1ccc(Cl)cc1)N2 (stereo unspecified) ?
active

Tell me the assay call for Nc1nc(N)c2c(n1)NC(c1ccccc1)C1CCc3ccccc3C1=N2 (stereo unspecified) please.
inactive

What did the test return for Nc1ncnc2c1N=C1c3ccccc3CCC1C(c1ccc(F)cc1)N2 (stereo unspecified) ?
active

Tell me the recorded outcome of this test for Nc1nc(N)c2c(n1)NC(c1ccc(Cl)cc1)C1CCc3ccccc3C1=N2 (stereo unspecified) .
inactive

GET /call?item= Nc1nc(N)c2c(n1)NC(c1ccc(F)cc1)C1CCc3ccccc3C1=N2 (stereo unspecified) returns the recorded outcome of this test.
inactive

---

- System: HCC 2998
- Procedure Details: Growth inhibition of human HCC2998 cells at 1 uM after 48 hrs by sulforhodamine B assay
- Assay type: functional, cell-based
Calls of active or inactive are those of the source. The rule behind the calls is not given here.
A correct response names exactly one class from active, inactive

Solved cases (4 shown):
                                   compound  target_or_system  class_assignment
0  Nc1ncnc2c1N=C1c3ccccc3CCC1C(c1ccc(Cl)cc1)N2 (stereo unspecified)          HCC 2998            active
1  Nc1ncnc2c1N=C1c3ccccc3CCC1C(c1ccc(F)cc1)N2 (stereo unspecified)          HCC 2998            active
2  Nc1nc(N)c2c(n1)NC(c1ccc(Cl)cc1)C1CCc3ccccc3C1=N2 (stereo unspecified)          HCC 2998          inactive
3  Nc1nc(N)c2c(n1)NC(c1ccccc1)C1CCc3ccccc3C1=N2 (stereo unspecified)          HCC 2998          inactive

Write down the call the test reported for this compound. Item: Nc1ncnc2c1N=C1c3ccccc3CCC1C(c1ccccc1)N2 (stereo unspecified)
active

Recorded test call requested for Nc1nc(N)c2c(n1)NC(c1ccc(F)cc1)C1CCc3ccccc3C1=N2 (stereo unspecified)
inactive
